Readings of IC50 for the listed compounds
Test system: PAF-induced aggregation of human thrombocytes
ASSAY_OVERVIEW: PAF-induced aggregation of human thrombocytes in vitro (inhibition of blood platelet aggregation)
Type: cell-based
CONDITION_SUMMARY: Homo sapiens, read-out: IC50 value PAF

# COMPOUND, SYSTEM_UNDER_TEST, IC50 [nM]
measured = [
    ("Cc1nnc2n1-c1sc3c(c1C(c1ccccc1Cl)=NC2)CC(C(=O)NCC(=O)N1CCOCC1)C3 (stereo not shown)", "PAF-induced aggregation of human thrombocytes", 400),
    ("Cc1nnc2n1-c1sc3c(c1C(c1ccccc1Cl)=NC2)CCC(C(=O)N1CCOCC1)C3 (stereo not shown)", "PAF-induced aggregation of human thrombocytes", 2500),
    ("Cc1nnc2n1-c1sc3c(c1C(c1ccccc1Cl)=NC2)C(C(=O)N(C)C)CC3 (stereo not shown)", "PAF-induced aggregation of human thrombocytes", 4800),
    ("CC(=O)NCC(=O)N1CCc2c(sc3c2C(c2ccccc2Cl)=NCc2nnc(C)n2-3)C1", "PAF-induced aggregation of human thrombocytes", 1000),
]
